EXPERIMENTAL DETAILS: Antagonist activity at smoothened expressed in mouse Shh Light2 cells co-expressing Gli-dependent reporter gene assessed as inhibition of Hh pathway
pIC50: −log10 of the molar value.
PARAMETER: pIC50

O=C(NC1CCCCC1)N1CCn2c(c(O)n([C@H]3C[C@@H]3c3ccccc3)c2=O)C1	6.22
O=C(Nc1ccncc1-c1ccccc1)N1CCn2c(c(O)n([C@H]3C[C@@H]3c3ccccc3)c2=O)C1	7.05
O=C(Nc1ccnn1-c1ccccc1)N1CCn2c(c(O)n([C@H]3C[C@@H]3c3ccccc3)c2=O)C1	7.80

I. CC(C)(C)C(=O)N1CCn2c(c(O)n([C@H]3C[C@@H]3c3ccccc3)c2=O)C1
II. Cc1cc(C#N)cc(Cl)c1NC(=O)N1CCn2c(c(O)n([C@H]3C[C@@H]3c3ccccc3)c2=O)C1
Ask | Response body: label of entry with the larger pIC50; valid values I , II . Response format: the label of the selected entry.
Reply | II
(II: 6.82, I: 5.35)

I. O=C(Nc1ccccc1-c1ccccc1)N1CCn2c(c(O)n(CCc3ccccc3)c2=O)C1
II. Cc1c(Cl)cccc1NC(=O)N1CCn2c(c(O)n([C@H]3C[C@@H]3c3ccccc3)c2=O)C1
Ask | Input pair: I , II . Output: entry with lower pIC50. Response format: the label of the selected entry.
Reply | I
(I: 5.30, II: 6.43)

P. CN(C(=O)N1CCn2c(c(O)n([C@H]3C[C@@H]3c3ccccc3)c2=O)C1)c1ccccc1-c1ccccc1
Q. Cc1cccc(Cl)c1NC(=O)N1CCn2c(c(O)n([C@H]3C[C@@H]3c3ccccc3)c2=O)C1
Ask | Response body: label of entry with the larger pIC50; valid values P , Q . Response format: the label of the selected entry.
Reply | Q

1. O=C(Nc1c(Cl)cc(C(F)(F)F)cc1Cl)N1CCn2c(c(O)n([C@H]3C[C@@H]3c3ccccc3)c2=O)C1
2. O=C(Nc1ccc2c(c1)OCO2)N1CCn2c(c(O)n([C@H]3C[C@@H]3c3ccccc3)c2=O)C1
3. O=C(Nc1cccnc1-c1cccc(Cl)c1)N1CCn2c(c(O)n([C@H]3C[C@@H]3c3ccccc3)c2=O)C1
Ask | List items by pIC50 in falling order. Please respond with the labels ordered as the question requires.
Reply | 3, 1, 2

----------
TEST TARGET: Smoothened homolog (Homo sapiens, UniProt Q99835)
Sequence (Q99835 whole entry): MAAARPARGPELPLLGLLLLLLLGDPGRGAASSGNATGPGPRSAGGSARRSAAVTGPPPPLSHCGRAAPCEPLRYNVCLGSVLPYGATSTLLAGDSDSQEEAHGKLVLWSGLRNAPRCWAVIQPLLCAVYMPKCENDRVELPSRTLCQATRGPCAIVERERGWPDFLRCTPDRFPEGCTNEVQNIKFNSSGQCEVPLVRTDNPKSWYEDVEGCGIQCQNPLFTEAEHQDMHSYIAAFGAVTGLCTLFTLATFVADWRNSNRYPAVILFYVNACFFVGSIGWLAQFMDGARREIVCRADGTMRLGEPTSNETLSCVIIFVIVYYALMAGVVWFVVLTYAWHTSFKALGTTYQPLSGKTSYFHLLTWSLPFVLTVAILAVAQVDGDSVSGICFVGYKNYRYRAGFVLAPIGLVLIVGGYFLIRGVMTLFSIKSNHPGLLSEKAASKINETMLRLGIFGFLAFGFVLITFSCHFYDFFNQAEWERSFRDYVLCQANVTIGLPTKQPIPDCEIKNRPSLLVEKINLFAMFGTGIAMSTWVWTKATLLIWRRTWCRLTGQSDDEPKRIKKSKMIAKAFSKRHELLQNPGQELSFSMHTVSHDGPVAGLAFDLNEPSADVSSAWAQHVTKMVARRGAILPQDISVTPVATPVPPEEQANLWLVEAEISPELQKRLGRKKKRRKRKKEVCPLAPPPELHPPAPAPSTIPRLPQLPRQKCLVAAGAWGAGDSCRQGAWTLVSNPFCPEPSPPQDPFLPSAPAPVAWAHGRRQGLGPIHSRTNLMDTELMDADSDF
EXPERIMENTAL DETAILS: Antagonist activity at smoothened expressed in mouse Shh Light2 cells co-expressing Gli-dependent reporter gene assessed as inhibition of Hh pathway
pIC50: −log10 of the molar value.
PARAMETER: pIC50

The molecule listed as O=C(Nc1ccccc1-c1ccccc1)N1CCn2c(c(O)n(C3CC34CCCCC4)c2=O)C1 (stereo unspecified) has a reported pIC50 of < 5.60

----------
EXPERIMENTAL DETAILS: Antagonist activity at smoothened expressed in mouse Shh Light2 cells co-expressing Gli-dependent reporter gene assessed as inhibition of Hh pathway
pIC50: −log10 of the molar value.
PARAMETER: pIC50

CCCCCCNC(=O)N1CCn2c(c(O)n([C@H]3C[C@@H]3c3ccccc3)c2=O)C1	5.82
COC(=O)c1cccc(NC(=O)N2CCn3c(c(O)n([C@H]4C[C@@H]4c4ccccc4)c3=O)C2)c1Cl	5.66
O=C(Nc1cc(Cl)cc(Cl)c1)N1CCn2c(c(O)n([C@H]3C[C@@H]3c3ccccc3)c2=O)C1	6.11
CS(=O)(=O)c1cc(Cl)c(NC(=O)N2CCn3c(c(O)n([C@H]4C[C@@H]4c4ccccc4)c3=O)C2)c(Cl)c1	7.28

A. O=C(Nc1cccnc1-c1ccccc1)N1CCn2c(c(O)n([C@H]3C[C@@H]3c3ccccc3)c2=O)C1
B. O=C(Nc1ccccc1-c1ccccc1)N1CCn2c(c(O)n(-c3cccc(-c4ccccc4)c3)c2=O)C1
Ask | Response body: label of entry with the larger pIC50; valid values A , B . Response format: the label of the selected entry.
Reply | A

----------
EXPERIMENTAL DETAILS: Antagonist activity at smoothened expressed in mouse Shh Light2 cells co-expressing Gli-dependent reporter gene assessed as inhibition of Hh pathway
PARAMETER: IC50 (nM)

O=C(Nc1ccccc1-c1ccccc1)N1CCN2C(=O)N([C@H]3C[C@@H]3c3ccccc3)CC2C1 (some centres undefined)	3000
O=C(Nc1ccccc1-c1ccccc1)c1ccc2c(c1)C(=O)N([C@H]1C[C@@H]1c1ccccc1)C2=O	4600

A. Cn1cc(-c2ncccc2NC(=O)N2CCn3c(c(O)n([C@H]4C[C@@H]4c4ccccc4)c3=O)C2)cn1
B. O=C(Nc1ccc(F)c(Cl)c1Cl)N1CCn2c(c(O)n([C@H]3C[C@@H]3c3ccccc3)c2=O)C1
Ask | Input pair: A , B . Output: entry with lower IC50. Response format: the label of the selected entry.
Reply | B
(B: 510 nM, A: 1200 nM)

----------
TEST TARGET: Smoothened homolog (Homo sapiens, UniProt Q99835)
EXPERIMENTAL DETAILS: Displacement of [125I]-PA cyclopamine from smoothened expressed in african green monkey COS-1 cells after 10 mins by autoradiography
The reader will find reported IC50 values listed item by item below.

The compound listed as CCCCn1c(O)c2n(c1=O)CCN(C(=O)Nc1ccccc1-c1ccccc1)C2 has a reported IC50 of > 2500 nM

The compound listed as COC(=O)N1CCn2c(c(O)n([C@H]3C[C@@H]3c3ccccc3)c2=O)C1 has a reported IC50 of > 1500 nM

The compound listed as O=c1n2c(c(O)n1[C@H]1C[C@@H]1c1ccccc1)CN(CC1CCCCC1)CC2 has a reported IC50 of > 2500 nM

The compound listed as CC(=O)N1CCn2c(c(O)n([C@H]3C[C@@H]3c3ccccc3)c2=O)C1 has a reported IC50 of > 1500 nM

The compound listed as O=C(Nc1ccccc1-c1ccccc1)N1CCn2c(c(O)n(Cc3ccccc3)c2=O)C1 has a reported IC50 of > 2500 nM

The compound listed as O=C(C1CCCCC1)N1CCn2c(c(O)n([C@H]3C[C@@H]3c3ccccc3)c2=O)C1 has a reported IC50 of > 1500 nM

The compound listed as CN(C)C(=O)N1CCn2c(c(O)n([C@H]3C[C@@H]3c3ccccc3)c2=O)C1 has a reported IC50 of > 2500 nM

The compound listed as O=C(Nc1ccccc1-c1ccccc1)N1CCn2c(c(O)n(-c3cccc(-c4ccccc4)c3)c2=O)C1 has a reported IC50 of > 2500 nM

The compound listed as O=C(NCc1ccco1)N1CCn2c(c(O)n([C@H]3C[C@@H]3c3ccccc3)c2=O)C1 has a reported IC50 of > 2500 nM

The compound listed as O=C(Nc1ccccc1-c1ccccc1)N1CCn2c(c(O)n(C3CC34CCCCC4)c2=O)C1 (stereo unspecified) has a reported IC50 of > 2500 nM

The compound listed as O=C(Nc1ccccc1-c1ccccc1)N1CCn2c(c(O)n(-c3cccc4ccccc34)c2=O)C1 has a reported IC50 of > 2500 nM

----------
EXPERIMENTAL DETAILS: Antagonist activity at smoothened expressed in mouse Shh Light2 cells co-expressing Gli-dependent reporter gene assessed as inhibition of Hh pathway
PARAMETER: IC50 (µM)

COc1cccc(-c2ncccc2NC(=O)N2CCn3c(c(O)n([C@H]4C[C@@H]4c4ccccc4)c3=O)C2)c1	0.082
O=C(Nc1cccnc1-c1ccsc1)N1CCn2c(c(O)n([C@H]3C[C@@H]3c3ccccc3)c2=O)C1	0.24
O=C(Nc1cccc(Cl)c1Cl)N1CCn2c(c(O)n([C@H]3C[C@@H]3c3ccccc3)c2=O)C1	0.34

A. O=C(Nc1ccccc1-c1ccccc1)N1CCn2c(c(O)n(C3Cc4ccccc4C3)c2=O)C1
B. CC(C)c1ccccc1NC(=O)N1CCn2c(c(O)n([C@H]3C[C@@H]3c3ccccc3)c2=O)C1
Ask | Response body: label of entry with the larger IC50; valid values A , B . Response format: the label of the selected entry.
Reply | A
(A: 0.32 µM, B: 0.18 µM)
